experiment: PK in mice after a single intravenous dose; type: in vivo; settings: mouse, plasma, 1 mg/kg
Readout Kind: Vd (L/kg)
Numbers only here, please. The scale is L/kg.

Reported Vd of CCCCCCCCCCCCCCCCOCCCOP(=O)(O)CO[C@H](CO)Cn1ccc(N)nc1=O [BCV, brincidofovir] : 3.7

====

assay: PK in mice after a single intravenous dose; format: in vivo; settings: mouse, plasma, 1 mg/kg
Readout Kind: clearance (mL/min/kg)
Numbers only here, please. The scale is mL/min/kg.

Reported clearance of CCCCCCCCCCCCCCCCOCCCOP(=O)(O)CO[C@H](CO)Cn1ccc(N)nc1=O : 122

====

test: PK in mice after a single intravenous dose; assay type: in vivo; settings: mouse, plasma, 1 mg/kg
Readout Kind: AUC (ng·h/mL)
Numbers only here, please. The scale is ng·h/mL.

Reported AUC of CCCCCCCCCCCCCCCCOCCCOP(=O)(O)CO[C@H](CO)Cn1ccc(N)nc1=O [BCV, brincidofovir] : 171

====

assay: PK in mice after a single intravenous dose; type: in vivo; conditions: mouse, plasma, 1 mg/kg
Readout Kind: Cmax (ng/mL)
Numbers only here, please. The scale is ng/mL.

Reported Cmax of CCCCCCCCCCCCCCCCOCCCOP(=O)(O)CO[C@H](CO)Cn1ccc(N)nc1=O : 491

====

assay: Metabolic stability in rat hepatocytes; assay type: in vitro ADME
Readout Kind: hepatocyte CLint at 1 μM
Write the numeric value and follow it with the unit.

Reported hepatocyte CLint at 1 μM of CCCCCCCCCCCCCCCCOCCCOP(=O)(O)CO[C@H](CO)Cn1ccc(N)nc1=O : 9.73 µL/min/1e6 cells

Source of measurements: paper PMC9811456
